The values you see were collected from ChEMBL document CHEMBL4385653.

Target or system Epidermal growth factor receptor (Homo sapiens): recorded pIC50 listed per item.
pIC50: −log10 of the molar value.
READOUT_TYPE: pIC50

# COMPOUND_STRING, pIC50
rows = [
    ("Cc1ccc(-n2cc(NC(=O)c3cccc(NS(=O)(=O)c4ccc(Cl)cc4)c3)cn2)cc1", 5.06),
    ("COc1cccc(-n2cc(NC(=O)c3cccc(NS(=O)(=O)c4ccccc4)c3)cn2)c1", 4.64),
    ("O=C(Nc1cnn(-c2ccccc2)c1)c1ccc(NS(=O)(=O)c2ccccc2)cc1", 4.59),
    ("Cc1ccc(-n2cc(NC(=O)c3ccc(NS(=O)(=O)c4ccccc4)cc3)cn2)cc1", 4.74),
    ("COc1ccc(-n2cc(NC(=O)c3ccc(NS(=O)(=O)c4ccc(Cl)cc4)cc3)cn2)cc1", 4.79),
]

A = Cn1cc(NC(=O)c2cccc(NS(=O)(=O)c3ccccc3)c2)cn1
B = O=C(Nc1cnn(-c2ccccc2)c1)c1cccc(NS(=O)(=O)c2ccc(Cl)cc2)c1
Of A and B , which shows the smaller pIC50 value? Write down the label of the entry you select. A
